Tested on: Colo205
Test: Proliferation inhibition, Wnt mutant cell line Colo205
Assay type: cell-based
Conditions: Homo sapiens, COLO 205; Colo205, Wnt pathway-dependent, 96 hours; read-out: Antiproliferative IC50 Colo205
measured quantity: IC50 (nM)

These solved cases illustrate the format of a correct answer.
compound | result value
CN1c2nc(NCc3ccc(Oc4cnc(C(F)(F)F)nc4)nc3)nc3c2N(CCC3)C(=O)C1CC(F)(F)F (stereo not shown) | 8.8
CN1c2nc(NCc3ccc(Oc4ccc(C(F)(F)F)nc4)nc3)nc3c2N(CCC3)C(=O)[C@@H]1C(C)(C)O | 87
C[C@H]1C(=O)N2CCCc3nc(NCc4ccc(Oc5cc(C(F)(F)F)nn5C)nc4)nc(c32)N1C | 18.6
C[C@H]1Cn2ccc3nc(NCc4ccc(OCc5ccccc5)cc4)nc(c32)N1C | 39
[2H]C([2H])([2H])N1c2nc(NCc3ccc(Oc4ccc(C(F)(F)F)nc4)nc3)nc3c2N(CCC3)C(=O)[C@@H]1C | 21
CN1c2nc(NCc3ccc(Oc4cnc(C(F)(F)F)nc4)nc3)nc3c2N(CCC3)C(=O)[C@@H]1C1CCOCC1 | 17

A: CN1c2nc(NCc3ccc(Oc4cnc(C(F)(F)F)nc4)nc3)nc3c2N(CCC3)C(=O)C1(C)C
B: CCN1c2nc(NCc3ccc(Oc4ccc(C(F)(F)F)nc4)nc3)nc3c2N(CCC3)C(=O)[C@@H]1C(C)C
When the recorded IC50 values are compared, which is smaller: that of A or that of B ? Your choice should be expressed through its label.
B
(B: 8.5 nM, A: 16.1 nM)

P: C[C@H]1C(=O)N2CCCc3nc(NCc4ccc(Oc5cncc(C(F)(F)F)c5)nc4)nc(c32)N1C
Q: [2H]C([2H])([2H])N1c2nc(NCc3ccc(Oc4ccc(C(F)(F)F)nc4)nc3)nc3c2N(CCC3)C(=O)[C@@H]1CC(F)F
Could you please tell me which of these two has the higher IC50: P or Q ? Your choice should be expressed through its label.
P

Values from patent US12622917B2
